system: ATPase activity endogenous to L929 cell lysate; assay: Detergent inhibition of ATPase endogenous to L929 cell lysate (ATP remaining by luciferase luminescence, 22° C.); type: biochemical; settings: 0.5% detergent, 260 min
readout: Average Relative Light Unit Values (rlu)
Please give a number only; it is taken to be in rlu.

The molecule CCCCCCCCCCCC[N+](C)(C)CCCS(=O)(=O)[O-] showed Average Relative Light Unit Values equal to 391.64

The molecule CCCCCCCCCCCCOS(=O)(=O)[O-].[Na+] [SDS, Sodium dodecyl sulfate] showed Average Relative Light Unit Values equal to 0.00

The molecule C[C@H](CCC(=O)N(CCCNC(=O)[C@H](O)[C@@H](O)[C@H](O)[C@H](O)CO)CCCNC(=O)[C@H](O)[C@@H](O)[C@H](O)[C@H](O)CO)[C@H]1CC[C@H]2[C@@H]3[C@H](O)C[C@@H]4C[C@H](O)CC[C@]4(C)[C@H]3C[C@H](O)[C@]12C [BIGCHAP, N,N-bis(3-D-Gluconamidopropyl)cholamide] showed Average Relative Light Unit Values equal to 677.61

The molecule C[C@H](CCC(=O)NCCC[N+](C)(C)CC(O)CS(=O)(=O)[O-])[C@H]1CC[C@H]2[C@@H]3[C@H](O)C[C@@H]4C[C@H](O)CC[C@]4(C)[C@H]3C[C@H](O)[C@]12C (some centres unmarked) showed Average Relative Light Unit Values equal to 923.81

The molecule CCCCCCCCCCCC[N+](C)(C)Cc1ccccc1.[Br-] [BDDABr, Benzyldimethyldodecylammonium bromide] showed Average Relative Light Unit Values equal to 101.11

====

tested on: ATPase activity endogenous to L929 cell lysate; experiment: Detergent inhibition of ATPase endogenous to L929 cell lysate (ATP remaining by luciferase luminescence, 22° C.); format: biochemical; conditions: 0.05% detergent, 169 min
readout: Average Relative Light Unit Values (rlu)
Please give a number only; it is taken to be in rlu.

Note to self: Average Relative Light Unit Values of C[C@H](CCC(=O)NCCC[N+](C)(C)CCCS(=O)(=O)[O-])[C@H]1CC[C@H]2[C@@H]3[C@H](O)C[C@@H]4C[C@H](O)CC[C@]4(C)[C@H]3C[C@H](O)[C@]12C with ATPase activity endogenous to L929 cell lysate was 1143.02

Note to self: Average Relative Light Unit Values of C[C@H](CCC(=O)[O-])[C@H]1CC[C@H]2[C@@H]3CC[C@@H]4C[C@H](O)CC[C@]4(C)[C@H]3C[C@H](O)[C@]12C.[Na+] [Deoxycholate, sodium deoxycholate] with ATPase activity endogenous to L929 cell lysate was 738.1

Note to self: Average Relative Light Unit Values of CCCCCCCCCCCC[N+](C)(C)C.[Br-] [DTAB, dodecyltrimethylammonium bromide] with ATPase activity endogenous to L929 cell lysate was 1496.01

Note to self: Average Relative Light Unit Values of C[C@H](CCC(=O)NCCC[N+](C)(C)CC(O)CS(=O)(=O)[O-])[C@H]1CC[C@H]2[C@@H]3[C@H](O)C[C@@H]4C[C@H](O)CC[C@]4(C)[C@H]3C[C@H](O)[C@]12C (stereo partly drawn) with ATPase activity endogenous to L929 cell lysate was 1124.83

Note to self: Average Relative Light Unit Values of CCCCCCCCCCCCCCCC[N+](C)(C)C.[Br-] [CTAB, Cetyltrimethylammonium bromide] with ATPase activity endogenous to L929 cell lysate was 2093.80

Note to self: Average Relative Light Unit Values of CCCCCCCCCCCC[N+](C)(C)CCCS(=O)(=O)[O-] with ATPase activity endogenous to L929 cell lysate was 1053.56

Cited source: patent US20030104507A1
